Tested on: K562 cells
Experimental Protocol: Cell Titer Glo 2.0 cell viability (toxicity) assay, K562
Run Parameters: 500 cells/well, 72 hours
Quantity Name: Effect of Exemplary Compounds on Cell Viability, K562

> print(dat)
                                   molecule                    result
1  C[C@H]1CN(c2ccc3nc(-c4cc5cn(C)nc5cc4O)nc(C(N)=O)c3c2)C[C@H](C)N1 [Compound 797]  A (A represents <100 nM)
2  Cn1cc2cc(-c3ccc4nc(N5CCC(N)C5)ccc4n3)c(O)c(F)c2n1 (stereo in doubt) [Compound 363]  A (A represents <100 nM)

====

Tested on: HTT
Experimental Protocol: HiBiT protein abundance assay, HTT (K562 HiBiT knock-in)
Assay type: cell-based, human
Run Parameters: HiBiT knock-in K562 cells, 24 hours, top dose 10 μM
pIC50: −log10 of the molar value.
Please go through the items and note down their pIC50.

Consider the worked cases shown below.
> print(dat)
                                   molecule  quantity.name        result
1  CNC(=O)c1nc(-c2cc3cn(C)nc3cc2O)nc2ccc(N3C[C@@H](C)N[C@H](C)C3)cc12 (single isomer, unassigned)          pIC50  6.00 to 7.00
2  Cc1nc2cc(O)c(-c3ccc4nc(N5CCC(NCC6CC6)C5)ccc4n3)cc2o1 (centres unmarked) [Compound 389]          pIC50        > 7.00
3  CNC(=O)c1nc(-c2cc3cn(C)nc3c(C)c2O)nc2ccc(N3CC[C@@H](NC)C3)cc12          pIC50        > 7.00
4  Cc1c(O)c(-c2nc(C(=O)NC3CCC3)c3cc(N4C[C@@H](C)N[C@@H](C)C4)ccc3n2)cc2cn(C)nc12          pIC50  6.00 to 7.00

# return pIC50 for each item in the list
1. Cc1nc2cc(O)c(-c3ccc4nc(N5CCC(NC(C)C)C5)ccc4n3)cc2o1 (centres unmarked)
2. Cc1nc2c(F)c(O)c(-c3ccc4nc(N5CC[C@@H](N[C@H]6C[C@@H](F)C6)C5)ccc4n3)cc2o1 (stereo in doubt)
3. Cn1cc2cc(-c3ncc4nc(C5CCNCC5)ccc4n3)c(O)c(C#N)c2n1
4. Cn1cc2cc(-c3ccc4nc(N5CCC(NC6(CF)CC6)C5)ccc4n3)c(O)c(F)c2n1 (stereo in doubt) [Compound 353]

Reply:
1. > 7.00
2. > 7.00
3. 6.00 to 7.00
4. > 7.00

For every record below, what is its pIC50?
1. Cn1cc2cc(-c3ccc4nc(C5CCNCC5)ccc4n3)c(O)c(F)c2n1
2. Cn1cc2cc(-c3ccc4nc(C5CCNCC5)ccc4n3)ncc2n1
3. Cc1nc2cc(O)c(-c3ccc4nc(N5CC[C@H](NC6CCC6)C5)ccc4n3)cc2o1
4. CNC(=O)c1nc(-c2cc3cn(C)nc3c(F)c2O)nc2ccc(N3CCN[C@@H](C)C3)cc12

Reply:
> 7.00
5.00 to 6.00
> 7.00
> 7.00

Please give pIC50, item by item, for the list that follows.
1. Cc1nc2c(C)c(O)c(-c3ccc4nc(N5CC[C@@H](NC6(CF)CC6)C5)ccc4n3)cc2o1 (single isomer, unassigned)
2. Cc1nc2cc(O)c(-c3ccc4nc(N5CC[C@@H](NC6(CF)CC6)C5)ccc4n3)cc2o1 (single isomer, unassigned)

Reply:
1: > 7.00; 2: > 7.00
